targetEntity: Norepinephrine transporter (Rattus norvegicus, UniProt Q9WTR4)
Sequence (Q9WTR4 whole entry): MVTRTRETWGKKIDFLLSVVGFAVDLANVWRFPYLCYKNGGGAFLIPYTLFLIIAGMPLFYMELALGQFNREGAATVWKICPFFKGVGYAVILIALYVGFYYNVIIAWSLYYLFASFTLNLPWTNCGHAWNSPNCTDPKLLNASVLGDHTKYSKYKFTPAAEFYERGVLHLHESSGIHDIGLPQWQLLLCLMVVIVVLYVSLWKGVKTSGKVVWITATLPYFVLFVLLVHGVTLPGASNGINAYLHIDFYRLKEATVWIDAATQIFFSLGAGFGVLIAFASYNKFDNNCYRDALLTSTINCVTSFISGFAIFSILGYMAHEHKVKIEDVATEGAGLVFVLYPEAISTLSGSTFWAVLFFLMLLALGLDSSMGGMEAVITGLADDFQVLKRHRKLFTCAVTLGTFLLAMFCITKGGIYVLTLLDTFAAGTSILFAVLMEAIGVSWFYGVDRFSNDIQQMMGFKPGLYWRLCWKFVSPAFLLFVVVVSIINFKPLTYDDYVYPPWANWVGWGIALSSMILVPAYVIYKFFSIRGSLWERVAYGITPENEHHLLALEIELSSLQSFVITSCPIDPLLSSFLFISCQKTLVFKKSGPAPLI
protocolDescription: Ability to inhibit high affinity uptake of [3H]NE at Norepinephrine transporter (NET) using rat brain parietal/occipital cortex
pKi: −log10 of the molar value.
// bucketize pKi: lower level (below 6), middle level (6 to below 7), upper level (7 or more)

- compound: "C=CCOC[C@H]1CN(C)CC[C@@H]1c1ccc(Cl)cc1"
  qualitativeLabel: "upper level"
- compound: "CN1CC[C@H](c2ccc(Cl)cc2)[C@@H](CC(=O)OCCCc2ccccc2)C1"
  qualitativeLabel: "upper level"
- compound: "COC(=O)/C=C/[C@H]1CN(C)CC[C@@H]1c1ccc(Cl)cc1"
  qualitativeLabel: "middle level"
- compound: "CN1CC[C@H](c2ccc(Cl)cc2)C(C(=O)Oc2ccccc2)C1 (stereo not given in full)"
  qualitativeLabel: "lower level"
- compound: "CN1CC[C@H](c2ccc(Cl)cc2)[C@@H](CC(=O)N(C)C)C1"
  qualitativeLabel: "upper level"
- compound: "CN1CC[C@H](c2ccc(Cl)cc2)C(C(=O)N2CCCC2)C1 (stereo not given in full)"
  qualitativeLabel: "lower level"
- compound: "CN1CC[C@H](c2ccc(Cl)cc2)[C@@H](CCC(=O)O)C1"
  qualitativeLabel: "middle level"
- compound: "CNC(=O)C[C@H]1CN(C)CC[C@@H]1c1ccc(Cl)cc1"
  qualitativeLabel: "middle level"

----------
targetEntity: Norepinephrine transporter (Rattus norvegicus)
protocolDescription: Ability to inhibit high affinity uptake of [3H]NE at Norepinephrine transporter (NET) using rat brain parietal/occipital cortex
pKi: −log10 of the molar value.
pKi listing for selected molecules.

- molecule: "CN1CC[C@H](c2ccc(Cl)cc2)[C@@H](CC(=O)N(C)Cc2ccccc2)C1"
  targetEntity: "Norepinephrine transporter (Rattus norvegicus)"
  pKi: 7.49
- molecule: "CN1CC[C@H](c2ccc(Cl)cc2)[C@@H](CC(=O)O)C1"
  targetEntity: "Norepinephrine transporter (Rattus norvegicus)"
  pKi: 5.42
- molecule: "CN1CC[C@H](c2ccc(Cl)cc2)[C@@H](C(=O)OCCCCCc2ccccc2)C1"
  targetEntity: "Norepinephrine transporter (Rattus norvegicus)"
  pKi: 6.42
- molecule: "CN1CC[C@H](c2ccc(Cl)cc2)[C@@H](CCC(=O)NC23CC4CC(CC(C4)C2)C3)C1"
  targetEntity: "Norepinephrine transporter (Rattus norvegicus)"
  pKi: 6.82
- molecule: "CN1CC[C@H](c2ccc(Cl)cc2)[C@@H](CCC(=O)Nc2ccccc2)C1"
  targetEntity: "Norepinephrine transporter (Rattus norvegicus)"
  pKi: 7.25
- molecule: "CN1CC[C@H](c2ccc(Cl)cc2)[C@@H](COC(=O)NC23CC4CC(CC(C4)C2)C3)C1"
  targetEntity: "Norepinephrine transporter (Rattus norvegicus)"
  pKi: 7.25
- molecule: "CCNC(=O)OC[C@H]1CN(C)CC[C@@H]1c1ccc(Cl)cc1"
  targetEntity: "Norepinephrine transporter (Rattus norvegicus)"
  pKi: 7.00
- molecule: "CCC[C@H]1CN(C)CC[C@@H]1c1ccc(Cl)cc1"
  targetEntity: "Norepinephrine transporter (Rattus norvegicus)"
  pKi: 8.19
- molecule: "CN1CC[C@H](c2ccc(Cl)cc2)[C@@H](CCCO)C1"
  targetEntity: "Norepinephrine transporter (Rattus norvegicus)"
  pKi: 6.25
- molecule: "COC(=O)CC[C@H]1CN(C)CC[C@@H]1c1ccc(Cl)cc1"
  targetEntity: "Norepinephrine transporter (Rattus norvegicus)"
  pKi: 7.51
- molecule: "CC(=O)OC[C@H]1CN(C)CC[C@@H]1c1ccc(Cl)cc1"
  targetEntity: "Norepinephrine transporter (Rattus norvegicus)"
  pKi: 6.63
- molecule: "CN1CC[C@H](c2ccc(Cl)cc2)[C@@H](C(=O)OC(C)(C)C)C1"
  targetEntity: "Norepinephrine transporter (Rattus norvegicus)"
  pKi: 6.46
- molecule: "CN1CC[C@H](c2ccc(Cl)cc2)[C@@H](CCCF)C1"
  targetEntity: "Norepinephrine transporter (Rattus norvegicus)"
  pKi: 6.45
- molecule: "CN1CC[C@H](c2ccc(Cl)cc2)C(C(=O)N(C)C)C1 (some centres not stated)"
  targetEntity: "Norepinephrine transporter (Rattus norvegicus)"
  pKi: 6.24
- molecule: "CN1CC[C@H](c2ccc(Cl)cc2)[C@@H](COC(=O)c2ccccc2)C1"
  targetEntity: "Norepinephrine transporter (Rattus norvegicus)"
  pKi: 6.41
- molecule: "CCOC(=O)C[C@H]1CN(C)CC[C@@H]1c1ccc(Cl)cc1"
  targetEntity: "Norepinephrine transporter (Rattus norvegicus)"
  pKi: 7.00
- molecule: "CN1CC[C@H](c2ccc(Cl)cc2)[C@@H](COC(=O)Nc2ccccc2)C1"
  targetEntity: "Norepinephrine transporter (Rattus norvegicus)"
  pKi: 7.48
